Read-out: ABC Transporter (ABCB1), ABCB1 (gene 5243)
procedure.summary: LTEA_HepaRG_ABCB1: Life Technologies and Expression Analysis (LTEA) Assay for ABC Transporter (ABCB1) using HepaRG (AID 2283460)
measurement.parameters: mRNA level, 48 h; actives raise or lower the signal
Active and inactive are the calls of the source. The calls were made as follows: active = hit-call score of the fitted dose curve at least 0.9, where 1 is the maximum; inactive = score below 0.9.
measure.name: AC50

* CC(=O)c1ccccc1 | inactive
* Cn1cc[nH]c1=S | inactive
* Cc1nc(-c2ccccn2)ncc1C(=O)Nn1cc(C)c2cc(F)ccc21 | 2.77 µM (active)
* OCCOCCOCCO | 0.115 µM (active)
* O=C(O)c1cccc(C(=O)O)c1 | inactive
* COS(C)(=O)=O | inactive
* CCCCCCCCCCCCCCO | inactive
* O=C(O)c1cccc(C[C@@H]2COc3ccc(OCc4nc5cc(F)ccc5s4)cc3[C@@H]2O)c1 | inactive

Input line: Specify measured AC50 for NC(=O)NN=Cc1ccc([N+](=O)[O-])o1 .
Output line: inactive

Input line: Specify measured AC50 for C=CN1CCCC1=O .
Output line: inactive

Input line: Specify measured AC50 for COc1cc2c(c(OC)c1OC)-c1ccc(OC)c(=O)cc1[C@@H](NC(C)=O)CC2 .
Output line: 0.0797 µM (active)

Input line: Specify measured AC50 for CCOc1ccc2[nH]cc(C(=O)NCc3ccccc3)c(=O)c2n1 .
Output line: inactive

Input line: Specify measured AC50 for NC(N)=O .
Output line: inactive

Input line: Specify measured AC50 for OC[C@H]1O[C@@H]2O[C@H]3[C@H](O)[C@@H](O)[C@@H](O[C@H]4[C@H](O)[C@@H](O)[C@@H](O[C@H]5[C@H](O)[C@@H](O)[C@@H](O[C@H]6[C@H](O)[C@@H](O)[C@@H](O[C@H]7[C@H](O)[C@@H](O)[C@@H](O[C@H]1[C@H](O)[C@H]2O)O[C@@H]7CO)O[C@@H]6CO)O[C@@H]5CO)O[C@@H]4CO)O[C@@H]3CO .
Output line: inactive

Input line: Specify measured AC50 for c1ccc2cc3ccccc3cc2c1 .
Output line: inactive

----------
procedure.summary: APR_HepG2_MitoticArrest_72hr: Apredica 72-hour HepG2 Assay for Mitotic Arrest (AID 2282918)
measurement.parameters: high-content imaging, actives raise or lower the signal
Activity calls are given as the source filed them. The calls were made as follows: active = hit-call score of the fitted dose curve at least 0.9, where 1 is the maximum; inactive = score below 0.9.
Choose the fitting class; nothing outside 1 for active, 0 for inactive is accepted.

The examples below pair each entry with its known result.
• CCCCCCOC(=O)CC(CC(=O)OCCCCCC)(OC(=O)CCC)C(=O)OCCCCCC = 0
• CCCCCOC(C)=O = 0
• CC[C@H](C)C(=O)O[C@H]1C[C@H](O)C=C2C=C[C@H](C)[C@H](CC[C@@H](O)C[C@@H](O)CC(=O)O)[C@H]21 = 0
• O=S1(=O)CCCO1 = 0

Input line: State the result this test recorded for Cn1c(=O)c2[nH]cnc2n(C)c1=O .
Output line: 0

Input line: State the result this test recorded for CCCc1ccccc1 .
Output line: 0

Input line: State the result this test recorded for O=C1CN(N=Cc2ccc([N+](=O)[O-])o2)C(=O)N1 .
Output line: 1

Input line: State the result this test recorded for CCCCCCCC1CCC(=O)O1 (stereo not drawn) .
Output line: 0

----------
procedure.summary: APR_HepG2_MitoticArrest_24hr: Apredica 24-hour HepG2 Assay for Mitotic Arrest (AID 2282910)
measurement.parameters: high-content imaging, actives raise or lower the signal
Calls of active or inactive are those of the source. How the source made its calls: active means hit-call score of the fitted dose curve at least 0.9, where 1 is the maximum; inactive means score below 0.9.
Choose the fitting class; nothing outside t = active, f = inactive is accepted.

* O=C(O)c1cccc(C(=O)O)c1 | f
* CCc1ccc(O)c(C(C)(C)C)c1 | t
* CCCc1ccccc1 | f
* Nc1ccn([C@@H]2O[C@H](CO)[C@@H](O)[C@@H]2O)c(=O)n1 | f
* CCCCCCCC1CCC(=O)O1 (stereo not drawn) | f
* CCCCCCCCCCCCCCO | t

Input line: State the result this test recorded for COc1cc(C(C)C)c2c(c1)S(=O)(=O)N(COc1cc(=O)n3cccc(OCCN4CCCCC4)c3n1)C2=O .
Output line: t

Input line: State the result this test recorded for NC(=O)N(O)[C@@H]1COc2cc(OCc3ccccc3)ccc21 .
Output line: f

Input line: State the result this test recorded for OC(Cn1cncn1)(Cn1cncn1)c1ccc(F)cc1F .
Output line: f

Input line: State the result this test recorded for O=C(O)[C@H](O)[C@@H](O)C(=O)O .
Output line: f

Input line: State the result this test recorded for O=C(O)c1ccc2c(c1)nc(C(=O)NC1CCN(C3CC3)CC1)n2Cc1cc(-c2ccc(Cl)s2)on1 .
Output line: f

Input line: State the result this test recorded for O=S(=O)(O)c1ccc(N=Nc2c(O)ccc3cc(S(=O)(=O)O)ccc23)cc1 .
Output line: f

Input line: State the result this test recorded for C[C@]12C=CC(=O)C=C1CC[C@H]1[C@@H]3C[C@@H](O)[C@](O)(C(=O)CO)[C@@]3(C)C[C@H](O)[C@@]12F .
Output line: f

----------
tested.on: Estrogen receptor (Homo sapiens) + Estrogen receptor beta (Homo sapiens) (UniProt P03372+Q92731)
Sequence (P03372 whole entry, looked up, the tested form may be a part): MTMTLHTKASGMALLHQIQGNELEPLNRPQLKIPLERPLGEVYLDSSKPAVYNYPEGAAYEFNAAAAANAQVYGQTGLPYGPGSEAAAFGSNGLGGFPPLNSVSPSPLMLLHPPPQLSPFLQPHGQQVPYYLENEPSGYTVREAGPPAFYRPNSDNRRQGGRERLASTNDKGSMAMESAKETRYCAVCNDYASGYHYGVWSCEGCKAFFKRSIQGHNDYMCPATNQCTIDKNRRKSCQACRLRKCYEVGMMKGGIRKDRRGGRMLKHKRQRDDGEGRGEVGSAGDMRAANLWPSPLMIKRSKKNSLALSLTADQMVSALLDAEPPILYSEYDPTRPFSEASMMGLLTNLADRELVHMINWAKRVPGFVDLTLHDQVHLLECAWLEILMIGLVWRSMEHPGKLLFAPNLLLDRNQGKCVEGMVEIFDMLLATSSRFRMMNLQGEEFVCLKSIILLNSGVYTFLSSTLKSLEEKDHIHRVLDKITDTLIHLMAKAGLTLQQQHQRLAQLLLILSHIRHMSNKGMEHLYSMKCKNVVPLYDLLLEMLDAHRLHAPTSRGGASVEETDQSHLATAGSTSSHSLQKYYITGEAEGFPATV
Sequence (Q92731 whole entry, looked up, the tested form may be a part): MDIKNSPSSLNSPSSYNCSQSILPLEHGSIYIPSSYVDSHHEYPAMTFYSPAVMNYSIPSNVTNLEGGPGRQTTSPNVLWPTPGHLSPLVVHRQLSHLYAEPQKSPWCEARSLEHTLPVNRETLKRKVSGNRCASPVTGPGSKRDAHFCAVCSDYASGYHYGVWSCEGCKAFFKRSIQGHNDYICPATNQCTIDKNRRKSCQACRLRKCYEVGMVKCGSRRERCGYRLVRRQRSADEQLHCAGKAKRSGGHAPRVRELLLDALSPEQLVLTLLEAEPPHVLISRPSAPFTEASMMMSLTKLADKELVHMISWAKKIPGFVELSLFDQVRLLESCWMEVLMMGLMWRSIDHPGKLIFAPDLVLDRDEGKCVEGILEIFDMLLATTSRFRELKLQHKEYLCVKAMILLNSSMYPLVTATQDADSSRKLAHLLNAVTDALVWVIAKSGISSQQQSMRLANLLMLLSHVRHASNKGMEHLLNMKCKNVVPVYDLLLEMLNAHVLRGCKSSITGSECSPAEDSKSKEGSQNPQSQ
procedure.summary: OT_ER_ERaERb_1440: Odyssey Thera (OT) 24-hour HEK293T Protein-Complementation Assay for Estrogen Receptor-alpha/-beta Homodimer (AID 2283356);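 also: heteromer of ER alpha and ER beta binding domains; hits raise reporter fluorescence and both agonists and antagonists give an increase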
Protocol: OT_ER_ERaERb_1440 is a cell-based assay that uses HEK293T, a human kidney cell line, with measurements taken at 24 hours after chemical dosing in a 384-well plate.OT_ER_ERaERb_1440 is one of one assay component(s) measured or calculated from the OT_ER_ERaERb_1440 assay. […] This assay endpoint, OT_ER_ERaERb_1440, was analyzed in the positive analysis fitting direction relative to DMSO as the negative control and baseline of activity. […]
Inconclusive results are not listed. Activity calls are given as the source filed them. The calls were made as follows: active = hit-call score of the fitted dose curve at least 0.9, where 1 is the maximum; inconclusive = response in the unintended direction; inactive = score below 0.9.
Choose the fitting class; nothing outside active, inactive is accepted.

* CC(C)CCCCCCOC(=O)C1CCCCC1C(=O)OCCCCCCC(C)C (stereo unspecified) | inactive

Input line: State the result this test recorded for Cc1nc(-c2ccccn2)ncc1C(=O)Nn1cc(C)c2cc(F)ccc21 .
Output line: inactive

Input line: State the result this test recorded for NNC(=O)c1ccncc1 .
Output line: inactive

Input line: State the result this test recorded for Cn1cc[nH]c1=S .
Output line: inactive

Input line: State the result this test recorded for C[C@@H](Oc1ccc(CNC(=O)c2cccnc2Oc2ccc3c(c2)OCO3)c(F)c1)C(=O)O .
Output line: inactive

Input line: State the result this test recorded for CCCCCCCC/C=C\CCCCCCCC(=O)OC[C@@H](O)[C@H]1OC[C@H](O)[C@H]1O .
Output line: inactive

Input line: State the result this test recorded for c1ccc(C(O[C@@H]2CCCN(CCc3ccc4c(c3)OCO4)C2)c2ccccc2)cc1 .
Output line: active

Input line: State the result this test recorded for Cc1nccn1-c1ccc(Sc2cccc(C3(C(N)=O)CCOCC3)c2)cc1 .
Output line: active

----------
procedure.summary: APR_HepG2_P-H2AX_72hr: Apredica 72-hour HepG2 Assay for H2AX Phosphorylation (AID 2282916);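 also: phospho-histone H2A.x immunostain intensity per cell marking DNA damage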
measurement.parameters: imaging, actives raise or lower the signal
Activity calls are given as the source filed them. How the source made its calls: active means hit-call score of the fitted dose curve at least 0.9, where 1 is the maximum; inactive means score below 0.9.
Choose the fitting class; nothing outside active, inactive is accepted.

Input line: State the result this test recorded for c1ccc2c(c1)-c1cccc3c1c-2cc1ccccc13 .
Output line: active

Input line: State the result this test recorded for C[C@]12C=CC(=O)C=C1CC[C@H]1[C@@H]3C[C@@H](O)[C@](O)(C(=O)CO)[C@@]3(C)C[C@H](O)[C@@]12F .
Output line: inactive

Input line: State the result this test recorded for C=CN1CCCC1=O .
Output line: inactive

Input line: State the result this test recorded for OC[C@H]1O[C@@](CO)(O[C@H]2O[C@H](CO)[C@@H](O)[C@H](O)[C@H]2O)[C@@H](O)[C@@H]1O .
Output line: inactive

----------
procedure.summary: Tanguay_ZF_120hpf_EDEM: Oregon State University Tanguay Lab 120 Hour Post-fertilization zebrafish Assay for Edema Malformation (AID 2284400)
Calls of active or inactive are those of the source. The calls were made as follows: active = hit-call score of the fitted dose curve at least 0.9, where 1 is the maximum; inactive = score below 0.9.
Choose the fitting class; nothing outside active, inactive is accepted.

- O=C(Cl)C(F)(F)C(F)(F)C(F)(F)C(=O)Cl: inactive
- FC(F)=C(F)C(F)(F)C(F)(F)C(F)(F)C(F)(F)C(F)(F)C(F)(F)F: inactive
- FC(F)C(F)(F)COCC1CO1 (stereo unspecified): inactive
- OC(O)(C(F)C(O)(O)C(F)(F)F)C(F)(F)F: active
- FC(F)(F)COC(OCC(F)(F)F)OCC(F)(F)F: inactive

Input line: State the result this test recorded for C[Si](C)(C)C(F)(F)C(F)(F)C(F)(F)F .
Output line: inactive

----------
procedure.summary: BSK_3C_Proliferation: Cell Proliferation Assessment in the BioMAP Diversity Plus: 3C Assay (AID 2283006)
measurement.parameters: primary human endothelial cells (HUVEC)
Calls of active or inactive are those of the source. The calls were made as follows: active = hit-call score of the fitted dose curve at least 0.9, where 1 is the maximum; inactive = score below 0.9.
Choose the fitting class; nothing outside YES (active), NO (inactive) is accepted.

The examples below pair each entry with its known result.
- CCCCCCCCN(C)C: NO
- O=S(=O)(O)CCC(F)(F)C(F)(F)C(F)(F)C(F)(F)C(F)(F)C(F)(F)F: NO

Please find the next compound below.
Input line: State the result this test recorded for c1ccc(C(O[C@@H]2CCCN(CCc3ccc4c(c3)OCO4)C2)c2ccccc2)cc1 .
Output line: YES
